Test system: CEM, a Human T-type lymphoblast tumor cell line
Assay: Cell growth inhibition of CEM cells by D-nucleosides with or without L-nucleosides
Assay type: cell-based
Conditions: Homo sapiens, CCRF-CEM, 96 h, single agent, 1.0 uM, day 4; read-out: Day 4 Cell Growth - % of Control
quantityMeasured: activity at 1 µM
Report as: number unit

Requested field: activity at 1 µM. Item: Nc1ccn(C2CCC(CO)O2)c(=O)n1 (stereo not shown)
70%

====

# IC50 per entry
Tested on: HIV-1IIIB
Test: Anti-HIV activity: protection of MT-2 cells infected with HIV-1IIIB (MTT-dye reduction)
Type: cell-based
Conditions: Human immunodeficiency virus 1, MT2, 120 h, read-out: ID50
Respond numerically; units are µM and should not be typed.

>  <molecule>
Cc1cn([C@H]2C=C[C@@H](CO)O2)c(=O)[nH]c1=O [D4T, β-D-2',3'-didehydro-3'-deoxy-thymidine]

>  <studyTarget>
HIV-1IIIB

>  <unitsOfMeasure>
µM

>  <IC50>
6

$$$$

Give HIV-1IIIB IC50 for Cc1cn([C@H]2C[C@H](N=[N+]=[N-])[C@@H](CO)O2)c(=O)[nH]c1=O [AZT, 3'-azido-3'deoxythymidine]
0.09
